# experimental-system: Aryl hydrocarbon receptor (Homo sapiens)
# Sequence (P35869 whole entry): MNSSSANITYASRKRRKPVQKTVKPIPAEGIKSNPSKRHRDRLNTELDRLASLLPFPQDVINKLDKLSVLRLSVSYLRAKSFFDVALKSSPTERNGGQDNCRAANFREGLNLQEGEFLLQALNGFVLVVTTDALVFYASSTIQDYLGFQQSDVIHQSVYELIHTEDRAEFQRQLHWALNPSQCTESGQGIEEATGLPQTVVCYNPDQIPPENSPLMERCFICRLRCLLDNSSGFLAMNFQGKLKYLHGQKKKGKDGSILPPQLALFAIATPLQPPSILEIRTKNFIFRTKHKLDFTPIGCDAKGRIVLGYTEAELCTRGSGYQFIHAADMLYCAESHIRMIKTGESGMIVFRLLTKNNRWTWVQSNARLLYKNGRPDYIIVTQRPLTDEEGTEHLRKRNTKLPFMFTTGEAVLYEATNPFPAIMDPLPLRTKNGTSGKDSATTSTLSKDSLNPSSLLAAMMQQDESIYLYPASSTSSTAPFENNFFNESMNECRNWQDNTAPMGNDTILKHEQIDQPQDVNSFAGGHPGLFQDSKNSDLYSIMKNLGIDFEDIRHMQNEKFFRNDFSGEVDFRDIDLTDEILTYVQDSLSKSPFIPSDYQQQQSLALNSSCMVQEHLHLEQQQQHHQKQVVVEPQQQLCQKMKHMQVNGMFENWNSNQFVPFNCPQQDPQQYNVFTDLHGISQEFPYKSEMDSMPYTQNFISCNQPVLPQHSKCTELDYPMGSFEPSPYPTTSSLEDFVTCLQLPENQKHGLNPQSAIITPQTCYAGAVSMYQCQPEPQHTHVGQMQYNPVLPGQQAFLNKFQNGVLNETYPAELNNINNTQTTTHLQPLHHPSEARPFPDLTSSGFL
# assay-notes: Agonist activity at aryl hydrocarbon receptor in human MCF7 cells after 24 hrs CYP1A1-dependent EROD assay
pEC50: −log10 of the molar value.
observable: pEC50

smiles: O=c1cc(-c2ccccc2F)oc2ccc3ccccc3c12
qual: =
quantitative-readout: 6.48
//
smiles: Cc1cccc(C)c1-c1cc(=O)c2c(ccc3ccccc32)o1
qual: <
quantitative-readout: 5.00
//
smiles: O=c1cc(-c2c(F)cccc2F)oc2ccc3ccccc3c12
qual: =
quantitative-readout: 6.70
//
smiles: Cc1ccccc1-c1cc(=O)c2c(ccc3ccccc32)o1
qual: <
quantitative-readout: 5.00
//
smiles: COc1ccccc1-c1cc(=O)c2c(ccc3ccccc32)o1
qual: =
quantitative-readout: 6.57
//
smiles: O=c1cc(-c2ccccn2)oc2ccc3ccccc3c12
qual: =
quantitative-readout: 6.35

---

# assay-notes: Aqueous solubility in phosphate buffer at pH 7.4
# Assay type: physicochemical
# condition-notes: phosphate buffer, read-out: solubility

smiles: O=C(NC[C@H](NS(=O)(=O)c1ccccc1)C(=O)O)c1ccc(N2CCC(NC3=NCCCN3)CC2)cc1
solubility: < 0.1 µg/mL

smiles: O=c1cc(-c2ccccc2)oc2ccc3ccccc3c12
solubility: < 0.15 µg/mL

---

# assay-notes: Thermodynamic aqueous solubility in equal volume of ethyl alcohol and 1/15M phosphate buffer at pH 7.4
# Assay type: physicochemical
# condition-notes: 1:1 (v/v) ethyl alcohol / 1/15 M phosphate buffer

smiles: O=c1cc(-c2ccccc2)oc2ccc3ccccc3c12
solubility thermodynamic: 84.6 µg/mL

smiles: Cc1cccc(C)c1-c1cc(=O)c2c(ccc3ccccc32)o1
solubility thermodynamic: 1270 µg/mL

smiles: COc1ccccc1-c1cc(=O)c2c(ccc3ccccc32)o1
solubility thermodynamic: 45.8 µg/mL

smiles: O=c1cc(-c2c(F)cccc2F)oc2ccc3ccccc3c12
solubility thermodynamic: 248 µg/mL

smiles: O=c1cc(-c2ccccn2)oc2ccc3ccccc3c12
solubility thermodynamic: 299 µg/mL

smiles: O=c1cc(-c2ccccc2F)oc2ccc3ccccc3c12
solubility thermodynamic: 153 µg/mL

smiles: Cc1ccccc1-c1cc(=O)c2c(ccc3ccccc32)o1
solubility thermodynamic: 262 µg/mL
